molecular target: SCD1 (Homo sapiens, UniProt O00767); construct: host or cells: Saccharomyces cerevisiae ole1Δ strain (W303 pdr1Δ pdr3Δ background), plasmid pRS316, TDH3 promoter; experiment: Growth inhibition of yeast (ole1Δ) expressing human SCD1 as the sole desaturase; type: cell-based; conditions: yeast strain with SCD1 plasmid, OD600 growth read at 40 h; read-out: SCD1 IC50
measured.property: pIC50
Keep it numeric: pIC50 is minus log10 of the concentration in mol/L.

Cn1nc(NC(=O)N2CCC(Oc3cc(F)ccc3Cl)CC2)ccc1=O = 7.30
Cn1nc(NC(=O)N2CCC(Oc3ccccc3Cl)CC2)ccc1=O = 6.38
Cn1nc(-c2nc(N3CCC(Cc4cc(Cl)cc(C#N)c4)CC3)no2)ccc1=O = 5.70

Prompt: GET pIC50 | system: SCD1 (Homo sapiens, UniProt O00767) | item: "O=c1ccc(-c2noc(N3CCC(Cc4ccc(F)c(F)c4)CC3)n2)c[nH]1"
Response: 4.85

Prompt: GET pIC50 | system: SCD1 (Homo sapiens, UniProt O00767) | item: "Cn1nc(NC(=O)N2CCC(COc3ccccc3F)CC2)ccc1=O"
Response: 4.49

Prompt: GET pIC50 | system: SCD1 (Homo sapiens, UniProt O00767) | item: "Cn1nc(OC(=O)N2CCC(Oc3cc(F)cc(F)c3)CC2)ccc1=O"
Response: 5.05

Prompt: GET pIC50 | system: SCD1 (Homo sapiens, UniProt O00767) | item: "Cn1nc(NC(=O)N2CCC(Oc3cccc(Cl)c3)CC2)ccc1=O"
Response: 6.59

* * *

molecular target: SCD5 (Homo sapiens, UniProt Q86SK9); construct: host or cells: Saccharomyces cerevisiae ole1Δ strain (W303 pdr1Δ pdr3Δ background), plasmid pRS316, TDH3 promoter; test: Growth inhibition of yeast (ole1Δ) expressing human SCD5 as the sole desaturase; assay type: cell-based; conditions: yeast strain with SCD5 plasmid, OD600 growth read at 40 h; read-out: SCD5 IC50
Sequence (Q86SK9 whole entry): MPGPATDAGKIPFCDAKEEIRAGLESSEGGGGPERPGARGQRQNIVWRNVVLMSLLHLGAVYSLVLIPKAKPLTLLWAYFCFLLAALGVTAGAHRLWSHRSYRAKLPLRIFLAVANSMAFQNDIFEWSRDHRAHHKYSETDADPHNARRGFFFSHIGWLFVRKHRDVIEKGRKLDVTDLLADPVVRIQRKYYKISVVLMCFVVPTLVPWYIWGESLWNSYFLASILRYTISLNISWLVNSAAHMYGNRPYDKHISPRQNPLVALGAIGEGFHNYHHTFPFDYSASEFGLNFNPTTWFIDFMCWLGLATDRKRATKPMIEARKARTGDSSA
pIC50: −log10 of the molar value.
Here, each record is paired with measured pIC50 data.

Cn1nc(NC(=O)N2CCC(NCc3ccccc3C(F)(F)F)CC2)ccc1=O = < 4.35
Cn1nc(NC(=O)N2CCC=C(c3ccc(Cl)cc3)CC2)ccc1=O = < 4.35

Prompt: Retrieve pIC50 measured for "Cn1nc(NC(=O)N2CCC(Oc3cccc(C#N)c3Cl)CC2)ccc1=O" and print it.
Response: < 4.35

* * *

Molecular target: SCD1 (Homo sapiens, UniProt O00767)
Construct: host or cells: Saccharomyces cerevisiae ole1Δ strain (W303 pdr1Δ pdr3Δ background), plasmid pRS316, TDH3 promoter
Sequence (O00767 1-359): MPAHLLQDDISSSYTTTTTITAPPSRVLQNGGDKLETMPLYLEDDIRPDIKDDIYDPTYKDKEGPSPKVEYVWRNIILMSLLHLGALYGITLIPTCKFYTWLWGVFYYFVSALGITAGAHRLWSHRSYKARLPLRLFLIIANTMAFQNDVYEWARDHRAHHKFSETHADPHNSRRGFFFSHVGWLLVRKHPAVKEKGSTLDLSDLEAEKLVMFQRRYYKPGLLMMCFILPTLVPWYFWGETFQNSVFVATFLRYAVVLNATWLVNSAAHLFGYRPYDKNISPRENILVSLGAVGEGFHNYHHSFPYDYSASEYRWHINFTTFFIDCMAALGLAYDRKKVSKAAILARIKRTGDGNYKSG
Test: Growth inhibition of yeast (ole1Δ) expressing human SCD1 as the sole desaturase
Assay type: cell-based
Conditions: yeast strain with SCD1 plasmid, OD600 growth read at 40 h; read-out: SCD1 IC50
Here, each record is paired with measured IC50 data.

Prompt: Retrieve IC50 measured for Cn1cc(-c2nnc(N3CCC(Cc4cccc(F)c4)CC3)o2)ccc1=O [Compound 18] and print it.
Response: > 45 µM

Prompt: Retrieve IC50 measured for Cn1nc(NC(=O)N2CC=C(c3ccc(Cl)cc3)CCC2)ccc1=O [Compound 134] and print it.
Response: > 45 µM

Prompt: Retrieve IC50 measured for CN(c1cc(F)cc(F)c1)C1CCN(C(=O)Nc2ccc(=O)n(C)n2)CC1 [Compound 95] and print it.
Response: > 45 µM

* * *

Here, each record is paired with measured pIC50 data.
Molecular target: SCD1 (Homo sapiens)
Construct: host or cells: Saccharomyces cerevisiae ole1Δ strain (W303 pdr1Δ pdr3Δ background), plasmid pRS316, TDH3 promoter
Sequence (O00767 1-359): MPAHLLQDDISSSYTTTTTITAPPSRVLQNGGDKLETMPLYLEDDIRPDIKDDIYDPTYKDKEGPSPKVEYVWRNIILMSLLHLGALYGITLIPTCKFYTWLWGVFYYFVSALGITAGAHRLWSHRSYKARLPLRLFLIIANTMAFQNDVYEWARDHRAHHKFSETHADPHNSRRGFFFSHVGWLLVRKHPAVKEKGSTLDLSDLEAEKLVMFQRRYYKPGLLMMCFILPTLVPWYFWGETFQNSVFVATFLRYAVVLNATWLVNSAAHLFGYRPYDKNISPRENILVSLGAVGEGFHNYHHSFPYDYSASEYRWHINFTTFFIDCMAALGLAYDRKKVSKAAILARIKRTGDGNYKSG
Assay: Growth inhibition of yeast (ole1Δ) expressing human SCD1 as the sole desaturase
Format: cell-based
Conditions: yeast strain with SCD1 plasmid, OD600 growth read at 40 h; read-out: SCD1 IC50
pIC50: −log10 of the molar value.

Sample answers from the record:
Cn1nc(NC(=O)N2CCC(OCc3cccc(F)c3)CC2)ccc1=O = < 4.35
Cn1nc(NC(=O)N2CCC=C(c3ccc(Cl)cc3)CC2)ccc1=O = < 4.35

Now let's try a different one.
Prompt: Retrieve pIC50 measured for "Cn1cc(NC(=O)N2CCC(Cc3cc(F)ccc3F)CC2)ccc1=O" and print it.
Response: < 4.35

* * *

Here, each record is paired with measured pIC50 data.
Target: SCD1 (Homo sapiens, UniProt O00767)
Construct: host or cells: Saccharomyces cerevisiae ole1Δ strain (W303 pdr1Δ pdr3Δ background), plasmid pRS316, TDH3 promoter
Sequence (O00767 1-359): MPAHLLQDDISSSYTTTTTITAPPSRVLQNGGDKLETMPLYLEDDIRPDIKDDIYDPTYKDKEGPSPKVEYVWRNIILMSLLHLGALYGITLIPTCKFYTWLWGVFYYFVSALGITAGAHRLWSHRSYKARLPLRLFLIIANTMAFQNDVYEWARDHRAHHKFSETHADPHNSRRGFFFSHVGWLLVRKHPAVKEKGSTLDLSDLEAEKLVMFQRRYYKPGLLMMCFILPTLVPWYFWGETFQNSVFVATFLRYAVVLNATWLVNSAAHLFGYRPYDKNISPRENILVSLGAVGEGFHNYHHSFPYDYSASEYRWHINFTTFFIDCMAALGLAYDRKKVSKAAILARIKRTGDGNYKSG
Assay: Growth inhibition of yeast (ole1Δ) expressing human SCD1 as the sole desaturase
Type: cell-based
Settings: yeast strain with SCD1 plasmid, OD600 growth read at 40 h; read-out: SCD1 IC50
Keep it numeric: pIC50 is minus log10 of the concentration in mol/L.

Prompt: Retrieve pIC50 measured for "Cn1nc(NC(=O)N2CC(Oc3ccc(F)c(F)c3)C2)ccc1=O" and print it.
Response: 5.89

Prompt: Retrieve pIC50 measured for "Cn1cc(-c2nc(N3CCC(Oc4cccc(F)c4Cl)CC3)no2)ccc1=O" and print it.
Response: 6.46

Prompt: Retrieve pIC50 measured for "Cn1nc(-c2nc(N3CCC(Cc4ccc(F)c(F)c4)CC3)no2)ccc1=O" and print it.
Response: 6.07

Prompt: Retrieve pIC50 measured for "O=C(Cc1ccc(=O)[nH]n1)N1CCC(Oc2cccc(Cl)c2)CC1" and print it.
Response: 4.59

Prompt: Retrieve pIC50 measured for "Cn1nc(NC(=O)N2CCC(Cc3cc(F)c(F)cc3Cl)CC2)ccc1=O" and print it.
Response: 7.10

Prompt: Retrieve pIC50 measured for "Cn1nc(CC(=O)N2CCC(Cc3cc(F)cc(F)c3)CC2)ccc1=O" and print it.
Response: 4.76

Prompt: Retrieve pIC50 measured for "Cn1nc(NC(=O)N2CCC(Oc3cc(F)ccc3C(F)(F)F)CC2)ccc1=O" and print it.
Response: 8.00

* * *

Here, each record is paired with measured log10(IC50) data.
Biological target: SCD1 (Homo sapiens, UniProt O00767)
Construct: host or cells: Saccharomyces cerevisiae ole1Δ strain (W303 pdr1Δ pdr3Δ background), plasmid pRS316, TDH3 promoter
Sequence (O00767 1-359): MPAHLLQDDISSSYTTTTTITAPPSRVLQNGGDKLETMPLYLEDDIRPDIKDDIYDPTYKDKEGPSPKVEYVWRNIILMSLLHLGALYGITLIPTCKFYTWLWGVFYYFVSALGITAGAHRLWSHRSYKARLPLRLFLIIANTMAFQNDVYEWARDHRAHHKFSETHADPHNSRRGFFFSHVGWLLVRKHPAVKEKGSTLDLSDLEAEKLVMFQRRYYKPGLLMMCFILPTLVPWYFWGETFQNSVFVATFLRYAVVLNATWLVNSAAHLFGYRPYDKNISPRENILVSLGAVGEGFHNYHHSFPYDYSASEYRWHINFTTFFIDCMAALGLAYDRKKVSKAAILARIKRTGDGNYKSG
Assay: Growth inhibition of yeast (ole1Δ) expressing human SCD1 as the sole desaturase
Type: cell-based
Conditions: yeast strain with SCD1 plasmid, OD600 growth read at 40 h; read-out: SCD1 IC50
In plain terms, each number is the log10 of measured IC50 in nM.

Sample answers from the record:
Cn1nc(NC(=O)N2CCC(Oc3cc(F)c(F)c(Cl)c3)CC2)ccc1=O [Compound 89] = 2.41
Cn1nc(NC(=O)N2CCC(F)(Cc3cc(F)c(F)c(Cl)c3)CC2)ccc1=O [Compound 66] = 3.81
Cn1nc(NC(=O)N2CCC(Cc3cc(F)c(F)c(F)c3)CC2)ccc1=O [Compound 62] = 2.59
Cn1nc(NC(=O)N2CCC[C@@H](c3cc(F)cc(F)c3)CC2)ccc1=O [Compound 32] = 3.86
Cn1nc(-c2nnc(N3CCC(Cc4cc(F)cc(F)c4)CC3)s2)ccc1=O [Compound 121] = 2.26
Cn1nc(NC(=O)N2CCC(Nc3ccccc3C(F)(F)F)CC2)ccc1=O [Compound 92] = 3.38

Prompt: Retrieve log10(IC50) measured for Cn1cc(NC(=O)N2CCC(Cc3cc(F)cc(Cl)c3)CC2)ccc1=O [Compound 8] and print it.
Response: 3.37

Prompt: Retrieve log10(IC50) measured for Cn1nc(NC(=O)N2CCC(Cc3cc(F)c(F)c(Cl)c3)CC2)ccc1=O [Compound 63] and print it.
Response: 2.11
